Species: Rattus norvegicus
Test: Open TG-GATES - Regimen: Single
Format: toxicity, organism-based, Sprague-Dawley
Set-up: regimen Single, gender Male, age 6 weeks
Conditions: in vivo, po, 0 mg/kg, 24 h, tissue Blood, route gavage, dose level Control
READOUT_KIND: RBC (x10_4/ul)
Numbers only, in x10_4/ul.

# annotated cases, reported RBC shown
COc1cc([C@@H]2c3cc4c(cc3[C@@H](O[C@@H]3O[C@@H]5CO[C@@H](C)O[C@H]5[C@H](O)[C@H]3O)[C@H]3COC(=O)[C@H]23)OCO4)cc(OC)c1O [ETOPOSIDE] ... 578
CN(C)[C@@H]1C(O)=C(C(N)=O)C(=O)[C@@]2(O)C(O)=C3C(=O)c4c(O)cccc4[C@@](C)(O)[C@H]3C[C@@H]12 ... 596.4

Now consider the entry below.
Data request: Return RBC (reported value) for this molecule: O=[N+]([O-])c1ccc2c(c1)Cc1ccccc1-2
Data returned: 618

====

Organism: Rattus norvegicus
Assay: Open TG-GATES - Regimen: Daily Repeat
Assay type: toxicity, organism-based, Sprague-Dawley
Set-up: regimen Daily Repeat, gender Male, age 6 weeks
Details: in vivo, po, 0 mg/kg, […], tissue Blood, route gavage, dose level Control, time 14 day
For each record, write down the corresponding Plat.
Numbers only, in x10_4/uL.

Clc1c(Cl)c(Cl)c(Cl)c(Cl)c1Cl ... 106.8
CC(CN1c2ccccc2Sc2ccccc21)N(C)C (centres undefined) ... 114.3
O=C(O)Cc1ccccc1Nc1c(Cl)cccc1Cl ... 106.7

For the 2 molecules below, give their Plat values.
1. C1CCC(C(CC2CCCCN2)C2CCCCC2)CC1 (centres undefined)
2. C#C[C@]1(O)CC[C@H]2[C@@H]3CCC4=Cc5oncc5C[C@]4(C)[C@H]3CC[C@@]21C

Data returned:
116.2
124.1

====

Species: Rattus norvegicus
Experiment: Open TG-GATES - Regimen: Single
Assay type: toxicity, organism-based, Sprague-Dawley
Design: regimen Single, gender Male, age 6 weeks
Details: in vivo, po, 0 mg/kg, 6 h, tissue Blood, route gavage, dose level Control
READOUT_KIND: Neu (%)
One number for each entry, in %.

# annotated cases, reported Neu shown
CCOC(=O)[C@H](CCc1ccccc1)N[C@@H](C)C(=O)N1CCC[C@H]1C(=O)O ... 16.6
COc1cc([C@@H]2c3cc4c(cc3[C@@H](O[C@@H]3O[C@@H]5CO[C@@H](C)O[C@H]5[C@H](O)[C@H]3O)[C@H]3COC(=O)[C@H]23)OCO4)cc(OC)c1O [ETOPOSIDE] ... 11.2
Clc1c(Cl)c(Cl)c(Cl)c(Cl)c1Cl [PERCHLOROBENZENE] ... 14.8
C1CCC(C(CC2CCCCN2)C2CCCCC2)CC1 (centres undefined) [PERHEXILINE] ... 16.6
C#C[C@]1(O)CC[C@H]2[C@@H]3CCC4=Cc5oncc5C[C@]4(C)[C@H]3CC[C@@]21C [DANAZOL] ... 14.8
CN(C)[C@@H]1C(O)=C(C(N)=O)C(=O)[C@@]2(O)C(O)=C3C(=O)c4c(O)cccc4[C@@](C)(O)[C@H]3C[C@@H]12 [TETRACYCLINE] ... 13
CN1C(C(=O)Nc2ccccn2)=C(O)c2sc(Cl)cc2S1(=O)=O [LORNOXICAM] ... 14.2
CC(CN1c2ccccc2Sc2ccccc21)N(C)C (centres undefined) [PROMETHAZINE] ... 13.6

Data request: Return Neu (reported value) for this compound: Cc1cccc(Nc2ccccc2C(=O)O)c1C [MEFENAMIC ACID]
Data returned: 15
